The reported numbers originate from patent US20170267762A1.

# assay system: T1, human PD-1 extracellular domain fused with human Fc tag (hPD-1-hFc) (human)
# T1 construct: also called human PD-1-hFc
# T1 sequence (chain, as listed by the source limits assumed): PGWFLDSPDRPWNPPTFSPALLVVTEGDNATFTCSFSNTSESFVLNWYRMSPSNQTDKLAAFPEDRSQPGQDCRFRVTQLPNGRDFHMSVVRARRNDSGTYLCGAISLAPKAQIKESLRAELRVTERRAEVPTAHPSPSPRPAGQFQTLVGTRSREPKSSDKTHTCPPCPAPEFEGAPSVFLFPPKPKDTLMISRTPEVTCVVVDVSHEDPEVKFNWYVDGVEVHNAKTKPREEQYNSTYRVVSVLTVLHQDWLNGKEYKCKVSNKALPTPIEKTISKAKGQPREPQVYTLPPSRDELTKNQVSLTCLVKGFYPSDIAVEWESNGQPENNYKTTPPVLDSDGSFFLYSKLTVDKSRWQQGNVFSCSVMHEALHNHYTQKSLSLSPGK
# test details: ELISA on coated PD1-hFc
readout: EC50 (mg/L)
Reply with just the number (in mg/L).

Requested read-out: EC50. Entry: chimeric 6E1-hIgG4 (antibody, V domains shown, Mouse variable regions with human IgG4 constant region) VH: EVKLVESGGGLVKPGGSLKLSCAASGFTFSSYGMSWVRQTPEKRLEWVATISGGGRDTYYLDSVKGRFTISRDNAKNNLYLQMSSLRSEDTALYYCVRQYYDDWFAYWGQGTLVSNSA VL: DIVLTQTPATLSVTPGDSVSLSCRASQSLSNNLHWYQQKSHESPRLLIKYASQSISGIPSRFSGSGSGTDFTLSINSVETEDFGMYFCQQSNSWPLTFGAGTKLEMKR
0.0325

Requested read-out: EC50. Entry: chimeric 15H5-hIgG4 (antibody, V domains shown, Mouse variable regions with human IgG4 constant region) VH: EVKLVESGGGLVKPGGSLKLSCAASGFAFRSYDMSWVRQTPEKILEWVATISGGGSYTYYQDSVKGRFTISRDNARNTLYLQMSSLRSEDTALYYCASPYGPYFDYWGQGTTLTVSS VL: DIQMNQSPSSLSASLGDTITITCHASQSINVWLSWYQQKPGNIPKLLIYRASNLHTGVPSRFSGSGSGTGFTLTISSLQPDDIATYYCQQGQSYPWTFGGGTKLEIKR
0.0818

Requested read-out: EC50. Entry: chimeric 4C10-hIgG4 (antibody, V domains shown, Mouse variable regions with human IgG4 constant region) VH: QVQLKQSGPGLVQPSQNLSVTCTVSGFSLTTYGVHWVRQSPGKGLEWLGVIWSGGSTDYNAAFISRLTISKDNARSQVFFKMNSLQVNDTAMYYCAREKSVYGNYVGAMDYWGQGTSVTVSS VL: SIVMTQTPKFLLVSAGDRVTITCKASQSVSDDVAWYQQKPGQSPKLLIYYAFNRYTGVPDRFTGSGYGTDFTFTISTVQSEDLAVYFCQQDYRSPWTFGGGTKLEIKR
0.0946
